Data provenance: PubChem BioAssay AID1499

TGT: Integrin beta-2 (Homo sapiens) + Integrin alpha-M (Homo sapiens) (UniProt P05107+P11215)
Sequence (P05107 whole entry, looked up, other chains not shown): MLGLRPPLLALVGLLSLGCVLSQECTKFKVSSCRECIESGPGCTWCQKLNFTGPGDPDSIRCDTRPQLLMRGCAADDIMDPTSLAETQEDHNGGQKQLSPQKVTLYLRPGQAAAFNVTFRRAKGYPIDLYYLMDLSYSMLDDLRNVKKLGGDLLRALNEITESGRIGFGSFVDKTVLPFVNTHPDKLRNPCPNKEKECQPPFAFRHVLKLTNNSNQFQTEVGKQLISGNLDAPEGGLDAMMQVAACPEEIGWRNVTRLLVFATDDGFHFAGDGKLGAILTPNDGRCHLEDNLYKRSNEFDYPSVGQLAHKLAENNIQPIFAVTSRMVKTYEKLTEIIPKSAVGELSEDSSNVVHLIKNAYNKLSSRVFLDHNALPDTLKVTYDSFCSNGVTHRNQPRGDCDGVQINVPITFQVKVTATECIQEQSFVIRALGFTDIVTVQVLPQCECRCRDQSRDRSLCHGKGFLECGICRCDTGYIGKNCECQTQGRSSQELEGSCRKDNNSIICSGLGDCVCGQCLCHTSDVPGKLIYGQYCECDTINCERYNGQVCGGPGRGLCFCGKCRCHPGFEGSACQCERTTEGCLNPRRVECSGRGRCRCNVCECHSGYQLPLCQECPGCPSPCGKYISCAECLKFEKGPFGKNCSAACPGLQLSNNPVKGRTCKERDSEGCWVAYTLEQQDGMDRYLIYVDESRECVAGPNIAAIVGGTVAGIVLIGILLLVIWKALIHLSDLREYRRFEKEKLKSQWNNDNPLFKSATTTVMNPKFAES
EXPERIMENTAL_PROTOCOL: enhancers of CD11b/CD18 adhesion to fibrinogen, primary screen, K562 cells, luminescence (AID 1499)
MEASUREMENT_SETUP: ATPlite luminescence, at 10 µM
Out of some 93,000 compounds screened, about 65 (0.07%) were called active.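 Rule for the calls: active = 10 µM primary screen giving 50% or more activity, confirmed by 40% or more on retest at that dose; inactive = the rest.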 Only a selection was taken, and actives are over-represented in it overall.
Form entry, call: pick from active, inactive

Reference set (3 entries):
{"COMPOUND": "O=C(Nc1ccccc1)/C(=C/c1ccc([N+](=O)[O-])cc1)NC(=O)c1ccccc1", "ASSIGNED_CLASS": "inactive"}
{"COMPOUND": "CCS(=O)(=O)Nc1cccc(-c2cc(-c3ccccc3)c3cc(C)ccc3n2)c1", "ASSIGNED_CLASS": "inactive"}
{"COMPOUND": "Cc1c(Cl)cnc(NC(=O)COC(=O)c2ccc(S(=O)(=O)NCc3ccco3)cc2)c1Cl", "ASSIGNED_CLASS": "inactive"}

So what was the verdict on `Cc1cccc(NC(=O)Cn2c(=O)n(Cc3ccccc3)c(=O)c3c(C)c(C)sc32)c1` in this test?
inactive

So what was the verdict on `Cc1ccc(-c2nn(-c3ccccc3)cc2C(=O)Nc2cccc(S(=O)(=O)N3CCOCC3)c2)cc1` in this test?
inactive

* * *

TGT: Integrin beta-2 (Homo sapiens) + Integrin alpha-M (Homo sapiens) (UniProt P05107+P11215)
EXPERIMENTAL_PROTOCOL: enhancers of CD11b/CD18 adhesion to fibrinogen, primary screen, K562 cells, luminescence (AID 1499)
MEASUREMENT_SETUP: ATPlite luminescence, at 10 µM, active compounds read high
About 65 (0.07%) of roughly 93,000 compounds were called active. The list comes from a sample in which actives are over-represented; it also holds close analogues and randomly drawn compounds.
ASSAY_ENDPOINT: activation (%)
Dear colleague, please return just the value in %, with no unit written.

{"COMPOUND": "COc1ccc(/C=C2/C(=O)OCc3cc(OC)c(OC)cc32)c(OC)c1", "activation [%]": 4}
{"COMPOUND": "CC(=C/c1ccccc1)/C=N/NC(=O)c1cc(C)oc1C", "activation [%]": -1.7}
{"COMPOUND": "Cc1ccc(S(=O)(=O)C2C(=O)NC3(C)CC2c2ccccc2O3)cc1 (stereo unspecified)", "activation [%]": 0.7}
{"COMPOUND": "O=C1N(c2ccc(Cl)cc2)C(c2ccc(Cl)cc2)N2CCCN12 (stereo unspecified)", "activation [%]": 3.2}

`CCOc1ccc2c(=O)c(-c3ccc4c(c3)OCCCO4)c(C)oc2c1` yielded activation of 3

`Cc1ccc2nc(SCc3cn4c(C)cc(C)nc4n3)[nH]c2c1` yielded activation of -2.3

* * *

TGT: Integrin beta-2 (Homo sapiens) + Integrin alpha-M (Homo sapiens) (UniProt P05107+P11215)
EXPERIMENTAL_PROTOCOL: enhancers of CD11b/CD18 adhesion to fibrinogen, primary screen, K562 cells, luminescence (AID 1499)
MEASUREMENT_SETUP: ATPlite luminescence, at 10 µM, active compounds read high
Screen size: about 93,000 compounds; about 65 (0.07%) were called active. Only a selection was taken, and actives are over-represented in it overall.
# activation listing for each entry below
Dear colleague, please return just the value in %, with no unit written.

{"COMPOUND": "Cc1nn(C)c(Oc2ccccc2)c1CCNS(=O)(=O)c1ccc(F)cc1", "TGT": "Integrin beta-2 (Homo sapiens) + Integrin alpha-M (Homo sapiens) (UniProt P05107+P11215)", "activation, %": 4.8}
{"COMPOUND": "COc1ccc([N+](=O)[O-])cc1NC(=O)c1ccc(N(Cc2ccccc2C)S(C)(=O)=O)cc1", "TGT": "Integrin beta-2 (Homo sapiens) + Integrin alpha-M (Homo sapiens) (UniProt P05107+P11215)", "activation, %": 0.6}

# input for lookup
CCC1CCCCN1C(=S)Nc1ccc(SC(F)F)cc1 (stereo not drawn) yielded activation of 1.7
